- assay system: JAK1-JH2 domain (Homo sapiens)
- Construct: IC50 on JH2 domain activity (nM)
- Sequence (P23458 583-855 limits assumed): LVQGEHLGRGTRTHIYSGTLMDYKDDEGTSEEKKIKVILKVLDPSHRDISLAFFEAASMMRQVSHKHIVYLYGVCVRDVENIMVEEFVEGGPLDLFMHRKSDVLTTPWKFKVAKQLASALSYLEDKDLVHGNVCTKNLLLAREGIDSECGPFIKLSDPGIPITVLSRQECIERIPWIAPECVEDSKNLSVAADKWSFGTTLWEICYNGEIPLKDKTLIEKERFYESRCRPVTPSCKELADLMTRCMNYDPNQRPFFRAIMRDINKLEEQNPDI
- procedure text: Binding activity test for JH2 domain of JAK1 (Tb-antibody/tracer FRET)
The following compounds are listed with their measured pIC50 values.
Reminder that pIC50 means the negative base-10 logarithm of the concentration expressed in mol/L.

Below are worked cases with known answers.
[2H]C([2H])([2H])NC(=O)c1cnc(NC(=O)[C@@H]2C[C@H]2F)cc1Nc1ccc2cnn(CC)c2c1OC (relative stereo) [Example 241] ... 7.81
[2H]C([2H])([2H])NC(=O)c1cnc(NC(=O)C2CC2)cc1Nc1ccc2cnn(CC)c2c1OC [Example 44] ... 8.00
[2H]C([2H])([2H])NC(=O)c1cnc(NC(=O)C2CC2)cc1Nc1ccn2ncc(OC)c2c1OC [Example 278] ... 8.02

Shift focus to the following entry.
Ask | # lookup: pIC50 of [2H]C([2H])([2H])NC(=O)c1cnc(Nc2cc(C)nc(C)n2)cc1Nc1cc(F)c2cnn(CC)c2c1OC [Example 152]
Reply | 7.97

Data origin: patent US20250115597A1
